# Test system: Proteus vulgaris
# experiment summary: MIC against Gram-negative bacteria: Proteus vulgaris
# Type: cell-based
# measurement conditions: 96-well plate, 5×10^5 CFU/mL, 37° C., 10 h
This listing pairs substances with measured MIC against P. vulgaris.
value type: MIC against P. vulgaris (µg/mL)

1) PRT591 (CACDPHNSLSPQCNQFTGQCPCREGFGGLMCSAAAIRQCPDRTYGDVATGCRA; listed as Homo sapiens)    50
2) PRT493 (CDCPHTQNTCDPETGECVCPPHTQGVKCEECEDGHWGYDAEVGCQA; listed as Homo sapiens)    12.5
3) PRT489 (CDNGGTWEQGQCACLPGFSGDRCQLQTRCQNG; listed as Homo sapiens)    25
4) PRT541 (CSCDLRGTLGGVAECQPGTGQCFCKPHVCGQACASCKDGFFGLDQADYFGCRS; listed as Homo sapiens)    25
5) PRT470 (KCPQPCRNGGKCIGKSKCKCSKGYQGDLCS; listed as Homo sapiens)    12.5

###

# Test system: Aeromonas hydrophila
# experiment summary: MIC against Gram-negative bacteria: Aeromonas hydrophila
# Assay type: cell-based
# measurement conditions: 10 h cultivation at 37° C., 5×10^5 CFU/mL, two-fold serial dilution
value type: MIC A. hydrophila (µg/mL)

1) PRT1081 (APNPCEANGGQGPCSHLCLINYNRTVSCACPHLMKLHKDNTTCY; listed as Homo sapiens)    12.5
2) PRT1129 (PVTNCASSPCQNGGTCLQHTQVSYECLCKPEFTGLTCV; listed as Homo sapiens)    25
3) PRT1158 (IQTSCESFPLRNNATCKKCEKDYPCSCISGFTEKNCE; listed as Homo sapiens)    50
4) PRT1160 (DTEDCKSASCKNGTTSTHLRGYFFRKCVPGFKGTQCE; listed as Homo sapiens)    12.5
5) PRT1130 (DDCSSHCDLAHGCCAPDGSCRCDPGWEGLHCE; listed as Homo sapiens)    12.5
6) PRT1148 (NINECSSSPCLHGADCEDHINGYVCKCQPGWSGHHCE; listed as Homo sapiens)    12.5
7) PRT1104 (EVDECASDPCKNEATCLNEIGRYTCICPHNYSGVNCE; listed as Homo sapiens)    50
8) PRT1153 (TVSTCDPEHDPPHHCSRGATCISLPHGYTCFCPLGTTGIYCE; listed as Homo sapiens)    50

###

# Tested on: Aeromonas hydrophila
# experiment summary: MIC against Gram-negative bacteria: Aeromonas hydrophila
# Format: cell-based
# measurement conditions: Aeromonas hydrophila; 96-well plate, 5×10^5 CFU/mL, 37° C., 10 h
# maps each entry to its MIC against A. hydrophila
value type: MIC against A. hydrophila (µg/mL)

1. PRT1283 (NTDDCVDHACANGGVCVDGVGNYTCQCPLQYEGKACE; listed as Homo sapiens)    12.5
2. PRT1244 (CGSTCPTCVQGSCDTVTGDCVCSAGYWGPSCN; listed as Homo sapiens)    50
3. PRT1249 (NQCACNSSPCEQQSGRCQCRERTFGARCD; listed as Homo sapiens)    12.5
4. PRT1276 (LTCNYGNGGCQHTCDDTEQGPRCGCHIKFVLHTDGKTCI; listed as Homo sapiens)    12.5
5. PRT1205 (EHDECITNQHNCDENALCFNTVGGHNCVCKPGYTGNGTTCK; listed as Homo sapiens)    50
6. PRT1227 (NLKLCDASNHCDRHGVCNNFNHCHCEKGYNPPYCQ; listed as Homo sapiens)    12.5
7. PRT1322 (PIDPCRAGNGGCHGLATCRAVGGGQRVCTCPPGFGGDGFS; listed as Homo sapiens)    12.5
8. PRT1338 (EMDPCTGLTPGGCSRNAECIKTGTGTHTCVCQQGWTGNGRDCS; listed as Homo sapiens)    12.5
9. PRT1218 (DINECEREECENGGSCVNVFGSFLCNCTPGYVGQYCG; listed as Homo sapiens)    12.5
10. PRT1333 (PIPECAALLCPENSRCSPSTEDENKLECKCLPNYRGDGKYCD; listed as Homo sapiens)    25
11. PRT1286 (PKSPCEGTECQNGANCVDQGNRPVCQCLPGFGGPECE; listed as Homo sapiens)    50
12. PRT1224 (PPGDCASHPCQNGGSCEPGLHSGFTCSCPDSHTGRTCE; listed as Homo sapiens)    50
13. PRT1273 (DVDECEREDNAGCVHDCVNIPGNYRCTCYDGFHLAHDGHNCL; listed as Homo sapiens)    50
14. PRT1223 (LEGACTRSPCQHGGTCMDYWSWQQCHCKEGLTGKYCE; listed as Homo sapiens)    100
15. PRT1213 (HSDYCSQNTCLNGGKCSWTHGAGYVCKCPPQFSGKHCE; listed as Homo sapiens)    50
16. PRT1313 (VADLCQDGHGGCSEHANCSQVGTMVTCTCLPDYEGDGWSCR; listed as Homo sapiens)    25
17. PRT1335 (MTDICKSDNPCHRNANCTTVAPGRTECICQKGYVGDGLTCY; listed as Homo sapiens)    12.5
18. PRT1259 (CAVNNGGCDRTCKDTATGVRCSCPVGFTLQPDGKTC; listed as Homo sapiens)    50
19. PRT1264 (DIDECGNELNGGCVHDCLNIPGNYRCTCFDGFMLAHDGHNCL; listed as Homo sapiens)    25
20. PRT1325 (TEDNCNGTCHTSANCLTNSDGTASCKCAAGFQGNGTICT; listed as Homo sapiens)    25
21. PRT1343 (VFHECFFNPCHNSGTCQQLGRGYVCLCPLGYTGLKCE; listed as Homo sapiens)    12.5
22. PRT1272 (DVDECVEGTDNCHIDAICQNTPRSYKCICKSGYTGDGKHCK; listed as Homo sapiens)    12.5
23. PRT1233 (ISEPCPSYCSGHGDCISGVCFCDLGYTAAQGTCV; listed as Homo sapiens)    50
24. PRT1226 (YTASCQDMSCSKQGECLETIGNYTCSCYPGFYGPECE; listed as Homo sapiens)    25
25. PRT1202 (GYDFCSERHNCMENSICRNLNDRAVCSCRDGFRALREDNAYCE; listed as Homo sapiens)    50
26. PRT1228 (CPPCPKYASCHNSTHCTCEDGFRARSGRTYFHDSSEKCE; listed as Homo sapiens)    25
27. PRT1326 (AINACEISNGGCSAKADCKRTTPGRRVCTCKAGYTGDGIVCL; listed as Homo sapiens)    12.5
28. PRT1253 (WPRQCPCLVDGARYWPGQRIKADCQLCICQDGRPRRCR; listed as Homo sapiens)    50
